- measured on: T1, human CD40L, membrane-bound on cells (human, UniProt P29965 1-261)
- T1 sequence: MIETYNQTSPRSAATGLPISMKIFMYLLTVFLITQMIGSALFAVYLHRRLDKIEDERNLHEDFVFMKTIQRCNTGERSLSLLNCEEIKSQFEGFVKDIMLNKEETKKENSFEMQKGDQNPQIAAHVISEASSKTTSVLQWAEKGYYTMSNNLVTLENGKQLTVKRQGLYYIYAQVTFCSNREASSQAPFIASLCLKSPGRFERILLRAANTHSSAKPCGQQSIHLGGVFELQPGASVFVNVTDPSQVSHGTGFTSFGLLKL
- protocol: cell-based or functional assay
Catalogue of CHO-hCD40L-driven DC Activation IL-12 EC50 values
value type: CHO-hCD40L-driven DC Activation IL-12 EC50

binder: 2h503-1 Fc (Fc fusion, not shown: a dimerising Fc or GST) DIQMTQSPSSLSASVGDRVTITCRASHHIQRYLSWYQQKPGKAPKLLILWGSQLQSGVPSRFSGSGSGTDFTLTISSLQPEDFATYYCGQWWAPPQTFGQGTKVEIKR
recorded result: 2.8 nM
//
binder: 2h572-608-N297Qshort Fc (Fc fusion, not shown: a dimerising Fc or GST) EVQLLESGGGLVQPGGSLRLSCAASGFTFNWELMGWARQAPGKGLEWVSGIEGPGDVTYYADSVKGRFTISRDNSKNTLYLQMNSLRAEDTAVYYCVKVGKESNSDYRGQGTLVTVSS
recorded result: 0.93 nM
//
binder: 2h572-634 Fc (Fc fusion, not shown: a dimerising Fc or GST) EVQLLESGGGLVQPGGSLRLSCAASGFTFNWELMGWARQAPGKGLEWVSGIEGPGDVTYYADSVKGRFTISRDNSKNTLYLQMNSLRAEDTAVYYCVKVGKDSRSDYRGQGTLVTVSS
recorded result: 0.42 nM
//
binder: 2h572-619-N297Qlong Fc (Fc fusion, not shown: a dimerising Fc or GST) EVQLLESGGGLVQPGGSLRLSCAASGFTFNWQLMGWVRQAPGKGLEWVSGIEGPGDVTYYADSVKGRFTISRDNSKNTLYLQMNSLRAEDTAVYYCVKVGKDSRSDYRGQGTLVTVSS
recorded result: 1.1 nM
//
binder: 2h572-633-CT-Fc SP5 (Fc fusion, not shown: a dimerising Fc or GST) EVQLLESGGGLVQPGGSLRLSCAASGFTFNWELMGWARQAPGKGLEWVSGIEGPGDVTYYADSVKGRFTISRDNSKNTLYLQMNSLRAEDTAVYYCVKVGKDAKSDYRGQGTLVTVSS
recorded result: 2.3 nM
